This collection of values is drawn from the supplement of paper PMC6555819.

# Test system: PXR homodimer (NR concentration 270 nM)
# experiment-summary: PBM binding z-score (relative to random genomic background probes); higher = stronger binding; sequences stand for … in GC…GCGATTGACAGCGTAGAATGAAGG
Response key: 1 means PBM binding z-score >= -0.2; -1 means PBM binding z-score < -0.2.

Example results:
item-sequence	assigned-class
ATCTCTAGGTAAAGATGGTTCAGTGAATGCAAAT	1
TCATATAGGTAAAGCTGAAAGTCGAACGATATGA	-1
TAGCCTAGGTCATTGGGGCAGTATAGTACGCATC	1
ACCGAAAGGTCGTGAGGTGAGTATACAGAAAGGC	-1
GCAGACAGGTGAAACCCAGGTAACTCAGGGTGGC	-1

We now examine a further sequence.
Input: Hello, I need to know if `CCAGACAGGTGAGAAGTTAACTCAGCCTCGATTA` has measured PBM binding z-score not below -0.2. Thanks!
Output: 1

----------
Would you kindly list PBM binding z-score for each of these sequences?
# Tested on: PPARa:RXRa (NR concentration 270 nM, RXRa partner concentration 90 nM)
# experiment-summary: PBM binding z-score (relative to random genomic background probes); higher = stronger binding; sequences stand for … in GC…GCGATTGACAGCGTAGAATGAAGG
Numbers only.

Check out these entries, answers already filled in.
item-sequence	property	obs-value
GCTAGCAGGCCGTTTGGGTCACTCAATGACGGGC	PBM binding z-score	0.602
TCTGCTAGGTCCACGATGGTCAGCTAATCTGCTA	PBM binding z-score	-0.24
GCAGACAGGTGAAACGCAGGTAAATCAGGGTGGC	PBM binding z-score	0.983
TTACCAAGGTGAAAGGTCGTTGACGCACGCCTTG	PBM binding z-score	5.49
TTACCAAGGTGAGCTGAGGTCGCTGATCCAACTC	PBM binding z-score	1.52

# input for lookup
Input: What PBM binding z-score value was documented for this sequence, `CCGATTGGGGCATAAGGTTACCATAAGCCAGCCC` ?
Output: 1.96

----------
# Test system: FXR:RXRa (NR concentration 270 nM, RXRa partner concentration 90 nM)
# experiment-summary: PBM binding z-score (relative to random genomic background probes); higher = stronger binding; sequences stand for … in GC…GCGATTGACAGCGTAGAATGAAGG
Would you kindly list PBM binding z-score for each of these sequences?
Give bare numbers.

Check out these entries, answers already filled in.
item-sequence	assayed-system	property	obs-value
CGTCCAAGGGCAGAGAGGTCAGTGAATGCCGAGT	FXR:RXRa (NR concentration 270 nM, RXRa partner concentration 90 nM)	PBM binding z-score	1.75
CTACCAAAGTGAACAAGGTCGTTGATTACTATTC	FXR:RXRa (NR concentration 270 nM, RXRa partner concentration 90 nM)	PBM binding z-score	0.664

Provide PBM binding z-score for all items below, preserving their order.
1. TCTAGTAGATCAAAGGTTAAGAAAGCCGAAGCCT
2. GCTAGCAGGCCATTTGGGTGACTCAATGACGGGC
3. CGTCCAAGGTCAATGCTAGTTCAGTGAAAGCATT
4. CTACCAAGGTGAACAAGGTCGTTAATTACTATTC
5. GGGACGAGGGCAAAGTTGATAGCATCTGTCGACG

Output:
1. 1.56
2. -0.535
3. 7.07
4. 1.3
5. 1.7

----------
# Tested on: VDR homodimer (NR concentration 270 nM)
# experiment-summary: PBM binding z-score (relative to random genomic background probes); higher = stronger binding; sequences stand for … in GC…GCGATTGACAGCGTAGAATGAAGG
Would you kindly list PBM binding z-score for each of these sequences?
Give bare numbers.

Check out these entries, answers already filled in.
item-sequence	property	obs-value
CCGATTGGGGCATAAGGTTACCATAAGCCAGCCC	PBM binding z-score	-0.374
CAAACTAGGTCACCGGAAGGTCAAGGTCCGCATG	PBM binding z-score	3.16

Provide PBM binding z-score for all items below, preserving their order.
1. ACTCGGAGGACAAAGGTCAGCGCTACGCCAGTGA
2. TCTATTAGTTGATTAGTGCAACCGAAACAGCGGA
3. TCTAGTTGGCCAAAGGTCACACACTCGAAATGCG
4. CTCGAAAGTTCGGTTGAGGTGAGTATACGGATAA

Output:
1. 1.34
2. 0.654
3. 2.27
4. 0.742

----------
# Tested on: RARa:RXR (NR concentration 270 nM, RXRa partner concentration 90 nM)
# experiment-summary: PBM binding z-score (relative to random genomic background probes); higher = stronger binding; sequences stand for … in GC…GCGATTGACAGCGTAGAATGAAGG
Response key: Fulfilled means PBM binding z-score >= 2; Not fulfilled means PBM binding z-score < 2.

item-sequence	assayed-system	assigned-class
TTACCAAGGTGAAAGGTAGTTGATGCACGCCTTG	RARa:RXR (NR concentration 270 nM, RXRa partner concentration 90 nM)	Not fulfilled
ATCGAAAGGTCGACGAGGTAAGTATACACCGTTT	RARa:RXR (NR concentration 270 nM, RXRa partner concentration 90 nM)	Fulfilled
TTACCAAGGTGAAAGGTGGTTGATGCACGCCTTG	RARa:RXR (NR concentration 270 nM, RXRa partner concentration 90 nM)	Not fulfilled
ATCGAAAGGTCGACAAGGTGAGTATACACCGTTT	RARa:RXR (NR concentration 270 nM, RXRa partner concentration 90 nM)	Fulfilled
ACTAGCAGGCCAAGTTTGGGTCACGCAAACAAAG	RARa:RXR (NR concentration 270 nM, RXRa partner concentration 90 nM)	Fulfilled

Input: Hello, I need to know if `TCGAGTAGGTTAGTCGCGGCATTCAGCCAACATA` has measured PBM binding z-score not below 2. Thanks!
Output: Not fulfilled

Input: Same read-out for `CGAACGAGGGCATGAGTTGATACCAAATGCCGAT` ?
Output: Not fulfilled

Input: Same read-out for `GGAACGAGGGCATTCGATTTGATAGCATGGCGAT` ?
Output: Not fulfilled

Input: Same read-out for `CCAACTGGGCCACGAAAGGTCATTGATTCAGTGA` ?
Output: Fulfilled

Input: Same read-out for `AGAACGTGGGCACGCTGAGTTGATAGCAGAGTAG` ?
Output: Not fulfilled

Input: Same read-out for `CGTTACGGGTCACGAGGTTATAGCACGACGAGCG` ?
Output: Fulfilled

Input: Same read-out for `TTTAGTTGGTCACGGAGGTCACACACGACGGGTA` ?
Output: Fulfilled

Input: Same read-out for `ATCGAAAGGTCGAGGTGAGTATGGAGAAAGGGAA` ?
Output: Fulfilled

Input: Same read-out for `CGTCAAAGTTCAACTCAGGTAACGTAAAGCACGC` ?
Output: Fulfilled

Input: Same read-out for `ACTAATAGTTGACTTAGGGCAACCGATACGACGC` ?
Output: Not fulfilled

Input: Same read-out for `GCTAGCAGTCCATTTGGGTCACTCAATGACGGGC` ?
Output: Not fulfilled

Input: Same read-out for `GCTTACGGGTCAAAGGTTATACCATGAATAGAAT` ?
Output: Fulfilled

Input: Same read-out for `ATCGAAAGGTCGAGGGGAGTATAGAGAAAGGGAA` ?
Output: Fulfilled

Input: Same read-out for `GCATATCGGTAATACAAGGTGAAAGTCCGATTGT` ?
Output: Not fulfilled

Input: Same read-out for `CCTTACGGGTCAAGGTGATAGCACGGGTGGTACG` ?
Output: Fulfilled

Input: Same read-out for `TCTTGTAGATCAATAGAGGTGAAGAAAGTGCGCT` ?
Output: Not fulfilled

----------
# System: LXRb:RXRa (NR concentration 270 nM, RXRa partner concentration 90 nM)
# experiment-summary: PBM binding z-score (relative to random genomic background probes); higher = stronger binding; sequences stand for … in GC…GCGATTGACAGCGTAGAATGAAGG
property: PBM binding z-score
Numbers only.

Provide PBM binding z-score for all items below, preserving their order.
1. TAGCCTAGGTCATGGGCCAGTCTACCACGCGAAC
2. CGTCCAAGGTCATAGGAGCTCAGTGAAGACAGAT
3. CAAGACAGGTGAAAGGTAACTCAGTCTGGTACGC
4. CGTCAAAGTTCGACTAAGGTAACGTAAAGCACGC
5. CCTACTGGGCCATCAGGTCATTGAGATCAACGTT

Output:
1: 2.04; 2: 3.82; 3: 0.929; 4: 1.16; 5: 1.45

----------
# System: RARb homodimer (NR concentration 270 nM)
# experiment-summary: PBM binding z-score (relative to random genomic background probes); higher = stronger binding; sequences stand for … in GC…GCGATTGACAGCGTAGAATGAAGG
Response key: class 1 means PBM binding z-score >= 1; class 0 means PBM binding z-score < 1.

Example results:
item-sequence	assigned-class
GCTGCTAGGTGAGGTTGGTCAGCTAACGGGTACG	class 0
CCGACTGGGGCATATGGTTACCATAAGCCAGCCC	class 0
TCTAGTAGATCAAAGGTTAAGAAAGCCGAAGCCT	class 1
AATACAGGGTCATCGTAGGCCATAGTACGCACAG	class 1
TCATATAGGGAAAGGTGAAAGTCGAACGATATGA	class 1

Input: Hello, I need to know if `CGTACAAGGTCAATGCTAGGTCAGTGAAAGCATT` has measured PBM binding z-score not below 1. Thanks!
Output: class 1
